assay: in vitro; conditions: human, HEK293 viability
measurement type: viability at 2 days, 0.4 µM (%)
Report only the number, with the unit % understood.

Input: # viability at 2 days, 0.4 µM lookup, item Fc1ccc(C(c2ccc(F)cc2)N2CCN(C/C=C/c3ccccc3)CC2)cc1
Output: 88.1

====

target: C. elegans (N2) complex I (NADH:ubiquinone oxidoreductase) (Caenorhabditis elegans, UniProt P24887+Q93873+Q94360); assay: biochemical; assay type: biochemical; conditions: 3 µM; wild-type C. elegans mitochondria; single replicate; read-out: percent (%) in vitro complex I activity relative to solvent control
Sequence (Q94360 17-199): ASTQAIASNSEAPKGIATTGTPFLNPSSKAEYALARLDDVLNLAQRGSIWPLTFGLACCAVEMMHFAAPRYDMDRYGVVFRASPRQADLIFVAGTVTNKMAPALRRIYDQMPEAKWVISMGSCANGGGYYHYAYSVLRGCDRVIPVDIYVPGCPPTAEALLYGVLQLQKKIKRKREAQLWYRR
Sequence (P24887 whole entry): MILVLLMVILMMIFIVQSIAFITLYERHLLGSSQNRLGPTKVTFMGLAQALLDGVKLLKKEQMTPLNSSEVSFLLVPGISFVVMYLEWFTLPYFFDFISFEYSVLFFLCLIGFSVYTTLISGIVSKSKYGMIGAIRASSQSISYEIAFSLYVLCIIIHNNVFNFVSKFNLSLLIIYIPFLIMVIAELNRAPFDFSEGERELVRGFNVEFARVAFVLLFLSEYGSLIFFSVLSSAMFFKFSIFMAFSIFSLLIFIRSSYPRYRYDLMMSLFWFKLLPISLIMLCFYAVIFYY
Sequence (Q93873 31-482): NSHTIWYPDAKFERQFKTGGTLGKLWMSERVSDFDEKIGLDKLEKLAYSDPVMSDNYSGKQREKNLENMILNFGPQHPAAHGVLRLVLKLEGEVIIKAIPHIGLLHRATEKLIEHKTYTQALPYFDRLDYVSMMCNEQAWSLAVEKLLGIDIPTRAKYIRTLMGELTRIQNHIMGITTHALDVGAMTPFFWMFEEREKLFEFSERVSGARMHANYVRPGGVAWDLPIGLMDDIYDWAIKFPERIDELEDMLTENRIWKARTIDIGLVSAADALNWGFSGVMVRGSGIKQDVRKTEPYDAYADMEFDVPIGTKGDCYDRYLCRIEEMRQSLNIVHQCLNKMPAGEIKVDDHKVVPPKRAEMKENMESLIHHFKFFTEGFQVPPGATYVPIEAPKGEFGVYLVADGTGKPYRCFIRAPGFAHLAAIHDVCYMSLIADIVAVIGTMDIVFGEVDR
Could you please report measured remaining activity at 3 µM for the items listed next?
State just the number; it will be interpreted in %.

Input: Give the measured remaining activity at 3 µM of COc1ccc(Cc2nccc3cc(OC)c(OC)cc23)cc1OC [Papaverine, reference compound] .
Output: 67.5

Input: Can you check COC(=O)Nc1nc2ccc(Sc3ccccc3)cc2[nH]1 [fenbendazole, reference compound] next?
Output: 111

Input: Lookup COc1cc2c(cc1OC)C(c1ccc(-c3ccc(Cl)c(Cl)c3)o1)=NCC2 [NPD3577]
Output: 93.9

Input: Now consider COc1cc2c(cc1OC)C(C(C)c1ccc(CC(C)C)cc1)=NCC2 (stereo not drawn) [NPD10504] and answer again.
Output: 61.4

Input: Now this one: COc1cc2c(cc1OC)C(/C=C/c1ccc(N(C)C)cc1)=NCC2 [NPD6303]
Output: 82.5

Input: Let us now turn to COC(=O)Nc1nc2ccc(C(=O)c3ccccc3)cc2[nH]1 [mebendazole, reference compound]
Output: 104

====

target: B. taurus (heart) complex I (Bos taurus, UniProt P03887+P17694+P42026); assay: biochemical; type: biochemical; settings: Dose 0.313 µM; read-out: B. taurus mitochondrial complex I activity
Sequence (P03887 whole entry): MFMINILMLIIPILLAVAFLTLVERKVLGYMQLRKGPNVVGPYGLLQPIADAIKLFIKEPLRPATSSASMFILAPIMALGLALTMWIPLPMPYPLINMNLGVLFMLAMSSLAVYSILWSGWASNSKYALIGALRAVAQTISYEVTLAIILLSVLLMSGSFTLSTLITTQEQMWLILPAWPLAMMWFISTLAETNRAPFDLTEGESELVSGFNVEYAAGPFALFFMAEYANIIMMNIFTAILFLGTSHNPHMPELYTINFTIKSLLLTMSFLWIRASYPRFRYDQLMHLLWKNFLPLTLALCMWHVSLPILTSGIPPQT
Sequence (P17694 34-463): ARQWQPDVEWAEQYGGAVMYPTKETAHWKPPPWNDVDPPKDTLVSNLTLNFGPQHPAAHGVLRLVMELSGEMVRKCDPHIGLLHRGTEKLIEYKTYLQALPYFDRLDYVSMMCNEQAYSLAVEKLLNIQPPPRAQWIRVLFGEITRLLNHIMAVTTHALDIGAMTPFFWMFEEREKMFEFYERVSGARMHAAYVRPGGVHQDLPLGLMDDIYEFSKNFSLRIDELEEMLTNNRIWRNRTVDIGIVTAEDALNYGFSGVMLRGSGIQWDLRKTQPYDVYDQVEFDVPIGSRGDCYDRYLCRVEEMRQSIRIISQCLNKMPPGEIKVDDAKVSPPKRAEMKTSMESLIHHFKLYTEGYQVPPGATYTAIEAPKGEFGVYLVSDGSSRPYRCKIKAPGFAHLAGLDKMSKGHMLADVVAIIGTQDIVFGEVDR
Sequence (P42026 38-216): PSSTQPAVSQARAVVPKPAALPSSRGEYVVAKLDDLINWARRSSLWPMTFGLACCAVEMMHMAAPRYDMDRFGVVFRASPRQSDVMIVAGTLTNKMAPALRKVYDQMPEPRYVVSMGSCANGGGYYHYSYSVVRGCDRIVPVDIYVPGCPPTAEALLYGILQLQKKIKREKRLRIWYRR
For each entry below, report its activity at 0.313 µM value.
Respond numerically; units are % and should not be typed.

Input: Would you mind telling me what activity at 0.313 µM value was observed for Cc1ccc(SCCCn2cnc3ccccc32)cc1 [Compound 7926035] ?
Output: 98.3

Input: Proceed to Clc1ccccc1OCCCCn1cnc2ccccc21 [Compound 7925804]
Output: 90.5

Input: Moving on to the next molecule: FC(F)(F)c1cccc(OCCCCn2cnc3ccccc32)c1 [Compound 7925004]
Output: 83.3

Input: Also Cc1ccccc1OCCCCn1cnc2ccccc21 [Compound 7732524] ?
Output: 48.9

Input: Entry to check: Cc1ccc(SCCCCn2cnc3ccccc32)cc1 [Compound 7925333]
Output: 99.3

Input: For Nc1nc2ccccc2n1CCOc1ccc(Br)cc1 [Compound 5842535] then?
Output: 85.5

Input: Entry to check: Clc1ccc(Cn2cnc3ccccc32)c(Cl)c1 [Compound 6750659]
Output: 77.1

Input: Follow-up item: Clc1ccc(Cn2cnc3ccccc32)cc1Cl [Compound 5571325]
Output: 92.8

Input: Next molecule up: CC(C)Oc1cccc(OCCn2cnc3ccccc32)c1 [Compound 7926496]
Output: 76.3

Input: Try this molecule too: Cc1nc2ccccc2n1Cc1ccc(Cl)c(Cl)c1 [Compound 5655567]
Output: 62.7

====

target: B. taurus (heart) complex I (Bos taurus, UniProt P03887+P17694+P42026); experiment: biochemical; format: biochemical; details: B. taurus; dose 0.001 µM; Mean of replicates; read-out: Complex I activity, dose-response data
measurement type: activity at 0.001 µM (%)
Quick reminder: number only, in %, skip the unit.

Input: Param readout= activity at 0.001 µM; system= B. taurus (heart) complex I (Bos taurus, UniProt P03887+P17694+P42026); entry= COc1cc2c(cc1OC)C(/C=C/c1ccc(N(C)C)cc1)=NCC2 [NPD6303] ; returns value.
Output: 92

Input: Try this compound too: COc1cc2c(cc1OC)C(c1ccc(-c3ccc(Cl)c(Cl)c3)o1)=NCC2 [NPD3577]
Output: 106

Input: Next entry: CC(C)Cc1ccc(C(C)c2nc3ccccc3n2C)cc1 (stereo not shown) [NPD8790]
Output: 105

Input: Another compound: COc1cc2c(cc1OC)C(C(C)c1ccc(CC(C)C)cc1)=NCC2 (stereo not shown) [NPD10504]
Output: 99.9

====

molecular target: B. taurus (heart) complex I (Bos taurus, UniProt P03887+P17694+P42026); experiment: biochemical; format: biochemical; details: Dose 0.0005 µM; read-out: B. taurus mitochondrial complex I activity
measurement type: activity at 0.0005 µM (%)
Give just the numeric value; % need not be written.

Input: Fill in: activity at 0.0005 µM of Clc1ccccc1OCCCCn1cnc2ccccc21 is ___
Output: 116

Input: Then this compound: Cc1ccc(OCCn2cnc3ccccc32)c(C)c1
Output: 94.8

Input: // repeat for Cc1cccc(OCCn2c(C)nc3ccccc32)c1 and report
Output: 97.3

Input: Now the same for Cc1nc2ccccc2n1CCOc1ccccc1Cl
Output: 88.9

Input: Clc1ccc(OCCn2cnc3ccccc32)c(Cl)c1 ?
Output: 88.5

Input: Again, but for Cc1ccc(SCCCCn2cnc3ccccc32)cc1
Output: 87.2

Input: Now consider Clc1ccc(SCCCCn2cnc3ccccc32)cc1 and answer again.
Output: 97.1

Input: Continue with Clc1ccc(Cn2cnc3ccccc32)c(Cl)c1
Output: 93.8

Input: Note, next up: Cc1ccc(SCCCn2cnc3ccccc32)cc1
Output: 105

Input: // next record Nc1nc2ccccc2n1Cc1ccc(Cl)cc1
Output: 96.1

Input: And then Cc1ccccc1OCCCCn1cnc2ccccc21 , what is it?
Output: 102

Input: Same again, this time with Cc1ccc(C(C)C)c(OCC(O)Cn2cnc3ccccc32)c1 (centres unmarked)
Output: 95.3

Input: Also need CCCOc1ccc(Cn2cnc3ccccc32)cc1 , thanks.
Output: 97.8

Input: Similarly, Nc1nc2ccccc2n1CCOc1ccc(Br)cc1 ?
Output: 91.9

Input: Record: Cc1ccc(OCCn2cnc3ccccc32)cc1
Output: 97.5

Input: Also CCc1cc(OCCn2cnc3ccccc32)ccc1Cl ?
Output: 91.3

Input: Try the compound Clc1ccc(Cn2cnc3ccccc32)cc1Cl
Output: 100

Input: // query: Brc1ccccc1OCCCCn1cnc2ccccc21
Output: 101

Input: Quick one: Cc1nc2ccccc2n1CCOc1ccccc1
Output: 97.8

Input: And the next one, CC(C)Oc1cccc(OCCn2cnc3ccccc32)c1 ?
Output: 91.2

Input: Another compound to look at: FC(F)(F)c1cccc(OCCCCn2cnc3ccccc32)c1
Output: 92.1

Input: Proceed to Cc1nc2ccccc2n1Cc1ccc(Cl)c(Cl)c1
Output: 90.2

Input: Likewise for Cc1ccccc1OCCCn1c(C)nc2ccccc21 ?
Output: 101

====

biological target: C. elegans (N2) complex I (NADH:ubiquinone oxidoreductase) (Caenorhabditis elegans, UniProt P24887+Q93873+Q94360); experiment: biochemical; type: biochemical; details: Dose 37.5 µM; read-out: C. elegans mitochondrial complex I activity
measurement type: activity at 37.5 µM
Please format your answer as a value with the unit trailing.

Input: I'd like to know its activity at 37.5 µM. The compound in question is Clc1ccc(SCCCCn2cnc3ccccc32)cc1 [Compound 7925515]
Output: 7.84%

Input: How about Nc1nc2ccccc2n1Cc1ccc(Cl)cc1 [Compound 5652765] ?
Output: 0.7%

Input: Repeat for the following compound: Cc1ccc(C(C)C)c(OCC(O)Cn2cnc3ccccc32)c1 (stereo not shown) [Compound 6093301]
Output: 0%

Input: Also need Cc1ccc(SCCCn2cnc3ccccc32)cc1 [Compound 7926035] , thanks.
Output: 1.04%

Input: Clc1ccccc1OCCCCn1cnc2ccccc21 [Compound 7925804] ?
Output: 2.95%

Input: Then this compound: Cc1nc2ccccc2n1CCOc1ccccc1Cl [Compound 5561642]
Output: 4.46%

Input: Field entry: Cc1cccc(OCCn2c(C)nc3ccccc32)c1 [Compound 6285199]
Output: 1.37%

Input: Cool, now Clc1ccc(Cn2cnc3ccccc32)c(Cl)c1 [Compound 6750659]
Output: 3.82%

Input: What would you report for Cc1nc2ccccc2n1CCOc1ccccc1 [Compound 5550112] ?
Output: 11.1%

Input: Then Clc1ccc(Cn2cnc3ccccc32)cc1Cl [Compound 5571325] ?
Output: 8.47%

====

test system: L1 wild-type C. elegans; assay: 15-hour motility assay with drug alone (no KCN); format: cell-based, Caenorhabditis elegans; settings: without KCN, 0.05 µM, 15-hour, mean of replicates
Please provide measured Value relative to DMSO control, drug alone (without KCN), Mean for the entries that follow.
The response must contain the number and no unit.

Input: # Value relative to DMSO control, drug alone (without KCN), Mean lookup, item O=C(Nc1ccc([N+](=O)[O-])cc1Cl)c1cc(Cl)ccc1O [Niclosamide]
Output: 1.075

Input: Moving on to O=C(Nc1ccc(Oc2ccc(Cl)cc2)c(Cl)c1)c1cc(I)cc(I)c1O [Rafoxanide]
Output: 1.063

Input: Param item: Cc1cc(C(C#N)c2ccc(Cl)cc2)c(Cl)cc1NC(=O)c1cc(I)cc(I)c1O (stereo not shown) [Closantel]
Output: 0.995

Input: Another compound to check: O=C(Nc1cc(Cl)cc(Cl)c1O)c1c(O)c(Cl)cc(Cl)c1Cl [Oxyclozanide]
Output: 1.040
